# credit: ChEMBL document CHEMBL1125363

biological target: Serotonin 2 (5-HT2) receptor (Mus musculus, UniProt Q02152+P34968+P35363); test: In vitro binding affinity for serotonin 5-hydroxytryptamine (5-HT) 2 receptors; format: protein assay

compound	tested-system	value-units	cmp	Ki
Cl.c1ccc(CN2CCC(COc3ccc4ccccc4n3)CC2)cc1	Serotonin 2 (5-HT2) receptor (Mus musculus, UniProt Q02152+P34968+P35363)	nM	=	311
Cl.Fc1c(F)c(F)c(OCC2CCN(CC3CC3)CC2)c(F)c1F	Serotonin 2 (5-HT2) receptor (Mus musculus, UniProt Q02152+P34968+P35363)	nM	=	3356
O.OC(CC1CCN(Cc2ccccc2)CC1)c1ccc2ccccc2c1 (stereo unspecified)	Serotonin 2 (5-HT2) receptor (Mus musculus, UniProt Q02152+P34968+P35363)	nM	>	100
Fc1ccc(OCC2CCN(Cc3ccncc3)CC2)cc1.O	Serotonin 2 (5-HT2) receptor (Mus musculus, UniProt Q02152+P34968+P35363)	nM	=	31
Br.CN(C)c1ccc(C(=O)CC2CCN(CC3CC3)CC2)cc1.O	Serotonin 2 (5-HT2) receptor (Mus musculus, UniProt Q02152+P34968+P35363)	nM	=	559
O.OC(CC1CCN(Cc2ccccc2)CC1)c1cccs1 (stereo unspecified)	Serotonin 2 (5-HT2) receptor (Mus musculus, UniProt Q02152+P34968+P35363)	nM	=	446

----------
In this section, each of the compounds is paired with its reported Ki.
biological target: Sigma non-opioid intracellular receptor 1 (Mus musculus, UniProt O55242); assay: In vitro binding affinity for the mouse sigma opioid receptor
Sequence (O55242 whole entry): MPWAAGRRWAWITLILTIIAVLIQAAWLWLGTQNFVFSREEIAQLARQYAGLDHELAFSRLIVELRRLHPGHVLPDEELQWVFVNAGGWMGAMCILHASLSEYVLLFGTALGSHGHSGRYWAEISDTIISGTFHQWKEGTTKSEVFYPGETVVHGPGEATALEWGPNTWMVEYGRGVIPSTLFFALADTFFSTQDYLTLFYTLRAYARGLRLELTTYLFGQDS
measured-endpoint: Ki (nM)

compound	measured-endpoint	value-units	result
O.OC(Cc1ccc(F)cc1)C1CCN(CCCc2ccccc2)CC1 (stereo unspecified)	Ki	nM	7
O.O=C(CC1CCN(Cc2ccccc2)CC1)c1ccc(C(F)(F)F)cc1	Ki	nM	10
Cl.Fc1ccc(OCC2CCN(Cc3ccccc3)CC2)cc1.O	Ki	nM	2
Cl.c1ccc(OCC2CCN(CC3CC3)CC2)nc1	Ki	nM	44
O=C(CC1CCN(CCc2ccc(Cl)cc2)CC1)c1ccc(F)cc1	Ki	nM	5
O.OC(CC1CCN(Cc2ccccc2)CC1)c1ccc2ccccc2c1 (stereo unspecified)	Ki	nM	31

----------
In this section, each of the compounds is paired with its reported Ki.
target: Serotonin 2 (5-HT2) receptor (Mus musculus, UniProt Q02152+P34968+P35363); assay: In vitro binding affinity for serotonin 5-hydroxytryptamine (5-HT) 2 receptors; assay type: protein assay
measured-endpoint: Ki (nM)

compound	cmp	result
O.O=C(O)/C=C\C(=O)O.c1ccc(CN2CCC(COCc3ccc(-c4ccccc4)cc3)CC2)cc1	=	47
C[C@@H]1CN(CCCn2c3ccccc3c3ccccc32)C[C@H](C)N1 [RIMCAZOLE]	=	2842
O.OC(CC1CCN(Cc2ccccc2)CC1)c1ccco1 (stereo not given)	=	1323
Cl.Fc1ccc(OCC2CCN(CC3CC3)CC2)cc1F	=	41
COC(=O)c1ccc(COCC2CCN(Cc3ccccc3)CC2)cc1.Cl.O	>	10000

----------
molecular target: Sigma non-opioid intracellular receptor 1 (Mus musculus, UniProt O55242); assay: In vitro binding affinity for the mouse sigma opioid receptor

compound	tested-system	Ki, nM
COc1ccc(CN2CCC(COc3ccc(F)cc3)CC2)cc1.O.O=C(O)/C=C\C(=O)O	Sigma non-opioid intracellular receptor 1 (Mus musculus, UniProt O55242)	30
CC(=O)c1ccc(OCC2CCN(CC3CC3)CC2)cc1	Sigma non-opioid intracellular receptor 1 (Mus musculus, UniProt O55242)	9
O=C(CC1CCN(Cc2ccccc2)CC1)c1ccc(-c2ccccc2)cc1	Sigma non-opioid intracellular receptor 1 (Mus musculus, UniProt O55242)	33
COC(=O)c1ccc(COCC2CCN(Cc3ccccc3)CC2)cc1.Cl.O	Sigma non-opioid intracellular receptor 1 (Mus musculus, UniProt O55242)	15
O.c1ccc(CN2CCC(COc3ccc4ccccc4c3)CC2)cc1	Sigma non-opioid intracellular receptor 1 (Mus musculus, UniProt O55242)	6
O=C(CCCN1CCC(C(=O)Cc2ccc(F)cc2)CC1)c1ccc(F)cc1	Sigma non-opioid intracellular receptor 1 (Mus musculus, UniProt O55242)	40
O=C(O)/C=C\C(=O)O.c1ccc(CCCOCC2CCN(Cc3ccccc3)CC2)cc1	Sigma non-opioid intracellular receptor 1 (Mus musculus, UniProt O55242)	3.2
O.O=C(O)/C=C\C(=O)O.c1ccc(CN2CCC(COc3cccnc3)CC2)cc1	Sigma non-opioid intracellular receptor 1 (Mus musculus, UniProt O55242)	5
COc1ccc(C(O)CC2CCN(Cc3ccccc3)CC2)cc1.Cl (stereo not drawn)	Sigma non-opioid intracellular receptor 1 (Mus musculus, UniProt O55242)	20
COc1ccc(C(=O)CC2CCN(Cc3ccccc3)CC2)cc1	Sigma non-opioid intracellular receptor 1 (Mus musculus, UniProt O55242)	4
Cl.Clc1ccc(OCC2CCN(CC3CC3)CC2)cc1Cl	Sigma non-opioid intracellular receptor 1 (Mus musculus, UniProt O55242)	8
O=C(CC1CCN(CCc2ccc(F)cc2)CC1)c1ccc(F)cc1	Sigma non-opioid intracellular receptor 1 (Mus musculus, UniProt O55242)	7
CSc1ccc(OCC2CCN(CC3CC3)CC2)cc1.Cl	Sigma non-opioid intracellular receptor 1 (Mus musculus, UniProt O55242)	7
COc1ccc(COCC2CCN(Cc3ccccc3)CC2)cc1.O=C(O)/C=C\C(=O)O	Sigma non-opioid intracellular receptor 1 (Mus musculus, UniProt O55242)	3.5
O=S(=O)(CC1CCN(CCC2CC2)CC1)c1ccc(F)cc1	Sigma non-opioid intracellular receptor 1 (Mus musculus, UniProt O55242)	28
Cl.OC(Cc1ccccc1)C1CCN(Cc2ccccc2)CC1 (stereo not drawn)	Sigma non-opioid intracellular receptor 1 (Mus musculus, UniProt O55242)	18
Br.O=C(CC1CCN(CC2CC2)CC1)c1ccc(Cl)cc1	Sigma non-opioid intracellular receptor 1 (Mus musculus, UniProt O55242)	8
O=C(CC1CCN(Cc2ccc(F)cc2)CC1)c1ccc(F)cc1	Sigma non-opioid intracellular receptor 1 (Mus musculus, UniProt O55242)	3
Cl.c1ccc(CN2CCC(COC3CCCCC3)CC2)cc1	Sigma non-opioid intracellular receptor 1 (Mus musculus, UniProt O55242)	2
O.c1ccc2cc(OCC3CCN(CC4CC4)CC3)ccc2c1	Sigma non-opioid intracellular receptor 1 (Mus musculus, UniProt O55242)	5
O=C(O)/C=C\C(=O)O.c1ccc(CN2CCC(COC3CC3)CC2)cc1	Sigma non-opioid intracellular receptor 1 (Mus musculus, UniProt O55242)	2
Cl.Clc1ccc(OCC2CCN(CC3CC3)CC2)cc1	Sigma non-opioid intracellular receptor 1 (Mus musculus, UniProt O55242)	4
c1cc(OCC2CCN(CC3CC3)CC2)ccn1	Sigma non-opioid intracellular receptor 1 (Mus musculus, UniProt O55242)	175
